Measured photoluminescence quantum yield, listed per entry.
assay: photoluminescence quantum yield (fraction); solvent given as SMILES; details: in C1CCOC1
Lab note: jot down the number only; don't add units.

// worked examples, photoluminescence quantum yield included
Fc1ccc(-c2cc3c4c(c2)CCc2cc(-c5ccc(F)cc5)cc(c2-4)CC3)cc1    0.81
CCn1c2ccccc2c2cc(C#Cc3cc(C#Cc4ccc5c(c4)c4ccccc4n5CC)nc(SC)n3)ccc21    0.61
Oc1ccc(C2=N[N+]3=Cc4c(ccc5ccccc45)O[B-]3(c3ccc([B-]45OC(c6ccc(O)cc6)=N[N+]4=Cc4c(ccc6ccccc46)O5)cc3)O2)cc1 (configuration not stated)    0.01
COc1cc(/C=C/c2nc3ccccc3o2)c(OC)cc1/C=C/c1nc(C)nc(C)n1    0.89
CCN(CC)c1ccc(C(=C(c2ccc(B(c3c(C)cc(C)cc3C)c3c(C)cc(C)cc3C)cc2)c2ccc(B(c3c(C)cc(C)cc3C)c3c(C)cc(C)cc3C)cc2)c2ccc(N(CC)CC)cc2)cc1    0.29
COc1ccc(-c2cc(C)nc(-c3ccc(-n4c5ccccc5c5ccccc54)cc3)n2)cc1    0.47

Ask: Endpoint output: photoluminescence quantum yield of `COc1cc2c(cc1-c1ccc(C#N)cc1)Cc1c3c(c4c(c1-2)-c1cc(OC)c(-c2ccc(C#N)cc2)cc1C4)C(=O)N(CCC(C)C)C3=O` . Value?
Result: 0.51

----------
Listing of entries alongside the reported photoluminescence quantum yield.
assay: photoluminescence quantum yield (fraction); solvent given as SMILES; conditions: in c1cc(-c2cccc(-n3c4ccccc4c4ccccc43)c2)cc(-n2c3ccccc3c3ccccc32)c1
Keep the answer to the number alone.

CC1(C)c2ccccc2N(c2ccc3c(c2)c2cc(N4c5ccccc5C(C)(C)c5ccccc54)ccc2c2nc4ccccc4nc32)c2ccccc21    0.84
CC1(C)c2ccccc2N(c2ccc(-c3nc(C#N)c(C#N)nc3-c3ccc(N4c5ccccc5C(C)(C)c5ccccc54)cc3)cc2)c2ccccc21    0.67

Ask: Given `Cc1cc(-c2nc(-c3ccccc3)nc(-c3ccccc3)n2)c(C)cc1-c1ccc2c(c1)C1(c3ccccc3-c3ccccc31)c1ccccc1N2c1ccccc1` , state its recorded photoluminescence quantum yield.
Result: 0.98

----------
experiment: photoluminescence quantum yield (fraction); solvent given as SMILES; details: in CO
Each entry gets False if its photoluminescence quantum yield stays under 0.2, and True if its photoluminescence quantum yield is 0.2 or above.

CC(=O)Nc1ccc2ccc3cccc4ccc1c2c34    False
O=c1[nH]c(=O)n([C@@H]2O[C@H](CO)[C@@H](O)[C@H]2O)cc1-c1cc2ccccc2s1    False

Ask: Is the recorded value of photoluminescence quantum yield equal to or greater than 0.2 for this molecule? COC(=O)C(NC(=O)OC(C)(C)C)c1ccc2oc(-c3cc(C(F)(F)F)cc(C(F)(F)F)c3)nc2c1 (stereo not drawn)
Result: True

Ask: Follow-up item: `O=C1/C(=C\c2ccc(N(c3ccccc3)c3ccccc3)cc2)S(=O)(=O)c2ccccc21`
Result: False

Ask: Try this molecule next: `CCCN1C(=O)C(=CC=CC=C2Oc3ccccc3N2CCCS(=O)(=O)[O-])C(=O)N(CCC)C1=S`
Result: False

Ask: Another molecule to check: `CC1(C)C(/C=C/C=C/C=C/C=C2/N(CCCCCC(=O)O)c3ccc(S(=O)(=O)[O-])cc3C2(C)C)=[N+](CCCCS(=O)(=O)[O-])c2ccc(S(=O)(=O)[O-])cc21`
Result: True

Ask: Same question, `Cc1ccc(C2=[N+]3C(=Cc4c(C)cc(C)n4[B-]3(F)F)c3ccccc32)[nH]1` this time
Result: True

Ask: Lookup `COc1ccc(-c2c(OC)ccc3nnn(C[C@H](N)C(=O)O)c23)cc1`
Result: False

Ask: Follow-up item: `CCCC(=O)c1c2c(c(C(=O)CCC)c3c1OC(CC(=O)OC)(C(=O)O)O3)OCO2`
Result: False

Ask: Also need N#Cc1c(-n2nnc3c2CCC2C(CC3)[C@@H]2CO)n([C@H]2C[C@H](O)[C@@H](CO)O2)c2ncnc(N)c12 (stereo partly drawn) , thanks.
Result: False

Ask: Follow-up entry: `CCN(CC)c1ccc(/C=C/C2=[O+][B-](F)(F)Oc3c2c(=O)oc2cc(N(CC)CC)ccc32)cc1`
Result: False

Ask: Now this one: `Fc1ccc(-c2cc3c4c(c2)CCc2cc(-c5ccc(F)cc5)cc(c2-4)CC3)cc1`
Result: True

Ask: Also, `c1ccc(-c2cc(-c3ccc4ccc5c(-c6ccnc(-c7ccccn7)c6)ccc6ccc3c4c65)ccn2)nc1` please.
Result: True

----------
assay: photoluminescence quantum yield (fraction); solvent given as SMILES; conditions: in C1CCOC1
Observation Type: photoluminescence quantum yield

Worked cases, answers included:
CCCN1C(=O)c2c3c(c4c(c2C1=O)CCc1cc(-c2ccc(N(C)C)cc2)c(OC)cc1-4)-c1cc(OC)c(-c2ccc(N(C)C)cc2)cc1CC3    0.069
CCN1c2ccc(/C=N/Nc3ccccn3)cc2Sc2cc(-c3ccccc3)ccc21    0.26
CN(C)c1ccc(C=C/C=C/C=C/c2ccc(C#N)cc2)cc1    0.112
Cc1cc(C)c([B-]2(c3c(C)cc(C)cc3C)[O+]=P(c3ccccc3)(c3ccccc3)c3cc(-c4ccccc4)sc3-c3sc(-c4ccccc4)cc32)c(C)c1    0.58
CCN(CC)c1ccc(/C=C/c2ccc(-c3ccc(/C=C/c4ccc(N(CC)CC)cc4)s3)s2)cc1    0.14
F[B-]1(F)n2c(nc(-c3ccccc3)c2-c2ccccc2)-c2cccc[n+]21    0.17

Ask: Look up photoluminescence quantum yield: `CN(C)c1ccc2c(c1)COc1c-2oc2ccccc2c1=O`
Result: 0.91

Ask: How about `COc1c(-c2ccc(N(C)C)cc2)oc2ccccc2c1=O` ?
Result: 0.88

Ask: Same question for `Cc1ccc(-c2cnc3nn4ccccc4c3c2)cc1` please.
Result: 0.29

----------
assay: photoluminescence quantum yield (fraction); solvent given as SMILES; settings: in CCCCOCCCC
Items are presented alongside their recorded photoluminescence quantum yield.
Number, no unit, nothing else.

The following compounds have reported results that may help.
COc1ccc(/C=C/c2ccccc2)cc1    0.02
COc1nc(Nc2cc3ccc4cccc5ccc(c2)c3c45)nc(OC)n1    0.15
c1ccc(-c2nn(-c3ccccc3)c3nc4ccc(N(c5ccccc5)c5cccc6ccccc56)cc4cc23)cc1    0.56
CCCCCCCCCCCCCCCCOc1cc(C#Cc2ccc3ccccc3c2)c(OCCCCCCCCCCCCCCCC)cc1C#Cc1ccc(C=C(C#N)C#N)cc1    0.81
Cc1cc(N(C)C)cc(C)c1/C=C/C=C/c1ccc(C#N)cc1    0.061

Ask: May I ask what photoluminescence quantum yield has been recorded for `O=S(=O)(c1ccc(-c2ccc(-c3nc4c5ccccc5c5ccccc5c4n3-c3ccccc3)cc2)cc1)c1ccc(-c2ccc(-c3nc4c5ccccc5c5ccccc5c4n3-c3ccccc3)cc2)cc1` ?
Result: 0.85

Ask: Another: `CCCCCCCCC1(CCCCCCCC)c2cc(-c3ccc(C(F)(F)F)cc3)ccc2-c2ccc(N(c3ccc(-n4c5ccccc5c5ccccc54)cc3)c3ccc4c(c3)C(CCCCCCCC)(CCCCCCCC)c3cc(-c5ccc(C(F)(F)F)cc5)ccc3-4)cc21`
Result: 0.67

----------
assay: photoluminescence quantum yield (fraction); solvent given as SMILES; settings: in ClCCl
Quick rule: photoluminescence quantum yield of at least 0.1 means fulfilled, below that means not fulfilled.

Examples with answers:
CC(C)c1cccc(C(C)C)c1N1C(=O)c2ccc3c(-c4ccccc4)c4c5ccc6c7c(ccc(c(-c8ccccc8)c4c4ccc(c2c34)C1=O)c75)C(=O)N(c1c(C(C)C)cccc1C(C)C)C6=O    fulfilled
CCn1c2ccccc2c2cc(-c3cc(-c4ccc5c(c4)c4ccccc4n5CC)nc(-c4ccc(C#N)cc4)n3)ccc21    fulfilled
F[B-]1(F)n2c(nc(-c3ccccc3)c2-c2ccccc2)-c2cccc[n+]21    fulfilled
COc1ccc(/C=C/C2=C3CCc4ccccc4C3=[O+][B-](F)(F)O2)cc1    not fulfilled
CCCCCCCC(=O)Oc1ccc2c3cccc4c(OC(=O)CCCCCCC)ccc(c5cccc1c52)c43    fulfilled
c1ccc(N(c2ccccc2)c2ccc(-c3nc(-c4ccc(N(c5ccccc5)c5ccccc5)cc4)c4ccccc4n3)cc2)cc1    fulfilled
Cc1ccc2nc3cc4c5c(cccc5c3nc2c1)C(c1ccccc1)=C(c1ccccc1)O4    fulfilled
O=C1c2cc3ccccc3cc2C2=Nc3cccc[n+]3[B-](F)(F)N12    fulfilled

Ask: // inclusive: photoluminescence quantum yield at least 0.1? input: `C(=C\c1ncc2ccccc2n1)/c1ccc(N(c2ccccc2)c2ccccc2)cc1`
Result: fulfilled

Ask: Repeat with CCCc1c(C(=O)c2ccc3c4c(cccc24)-c2cccc4c2C3CC=C4)c2ccc3cccc4c5cccc6ccc1c(c65)c2c34 (stereo not drawn)
Result: not fulfilled

Ask: Quick one: `CCN(CC)c1ccc2cc(/C(Cl)=C/C=C/C(=C(C#N)C#N)c3ccc4c(c3)c3ccccc3n4CC)c(=O)oc2c1`
Result: not fulfilled

Ask: Please do the same for `COc1ccc(-c2cc3ccc4cc(-c5ccc(OC)cc5)cc5ccc(c2)c3c45)cc1` as well.
Result: not fulfilled

Ask: Next record, please: `COc1cc(/C=C/c2nc3ccccc3o2)c(OC)cc1/C=C/c1nc(C)nc(C)n1`
Result: fulfilled

Ask: Now give it for `CN(C)c1ccc(/C=C/c2ncnc3ccccc23)cc1` too.
Result: not fulfilled
